These measurements were taken from patent US20100081679A1.

// reported logP for each item listed
# test protocol: logP determination via retention times, calibrated with unbranched alkan-2-ones
# Format: physicochemical
# measurement parameters: method *: HPLC reversed-phase C 18, temperature 40° C.; mobile phase 0.1% aqueous formic acid and acetonitrile; linear gradient 10% to 95% acetonitrile

Examples with their reported logP follow.
[
  {
    "compound": "CCc1cccc(Nc2ncc(Cl)c(NC3CC3)n2)c1",
    "logP": "2.35*"
  },
  {
    "compound": "COc1cc(Nc2ncc(F)c(NC3CC3)n2)ccc1NC(C)=O",
    "logP": "1.17*"
  },
  {
    "compound": "CSc1cccc(Nc2ncc(C#N)c(NC3CC3)n2)c1",
    "logP": "2.92*"
  },
  {
    "compound": "Fc1cnc(Nc2cccc(OC(F)(F)F)c2)nc1NC1CC1",
    "logP": "2.33*"
  },
  {
    "compound": "CNC(=O)Oc1cccc(Nc2ncc(C#N)c(NC3CC3)n2)c1",
    "logP": "1.92*"
  }
]

Query: Need logP of `CNC(=O)Oc1cccc(Nc2ncc(C(F)(F)F)c(NC3CC3)n2)c1` , thanks.
Response: 2.06*;

Query: Need logP of `CCNC(=O)c1cccc(Nc2ncc(Cl)c(NC3CC3)n2)c1` , thanks.
Response: 1.35*

Query: Need logP of `N#Cc1cnc(Nc2ccc(F)cc2)nc1NC1CC1` , thanks.
Response: 2.58*

Query: Need logP of `CSc1cccc(Nc2ncc(F)c(NC3CC3)n2)c1` , thanks.
Response: 1.73*

Query: Need logP of `N#Cc1ccc(Nc2ncc(F)c(NC3CC3)n2)cc1` , thanks.
Response: 1.73*

* * *

# test protocol: logP determination via retention times, calibrated with unbranched alkan-2-ones
# Assay type: physicochemical
# measurement parameters: method *: HPLC, reversed-phase C 18, 40° C., mobile phase 0.1% aqueous formic acid and acetonitrile, linear gradient from 10% to 95% acetonitrile
attribute measured: logP

Examples with their reported logP follow.
[
  {
    "compound": "COCCN(C)C(=O)c1cccc(Nc2ncc(Cl)c(NC3CC3)n2)c1 [compound 1064]",
    "logP": "1.46*"
  },
  {
    "compound": "CCSC(C)c1cccc(Nc2ncc(C(F)(F)F)c(NCC3CC3)n2)c1 (centres unmarked) [compound 988]",
    "logP": "4.37*"
  },
  {
    "compound": "CC(C)Oc1ccc(Nc2ncc(Cl)c(NC3CC3)n2)cc1 [compound 989]",
    "logP": "1.97*"
  },
  {
    "compound": "COCC1CCCN1C(=O)c1cccc(Nc2ncc(Cl)c(NC3CC3)n2)c1 (centres unmarked) [compound 1061]",
    "logP": "1.77*"
  },
  {
    "compound": "O=C(c1cccc(Nc2ncc(Cl)c(NC3CC3)n2)c1)N1CCC1 [compound 1063]",
    "logP": "1.43*"
  },
  {
    "compound": "Clc1cnc(Nc2cccc(OCCN3CCOCC3)c2)nc1NC1CC1 [compound 1040]",
    "logP": "0.84*"
  }
]

Query: Need logP of O=C(c1cccc(Nc2ncc(Cl)c(NC3CC3)n2)c1)N1CCSCC1 [compound 1067] , thanks.
Response: 1.8*

Query: Need logP of COC(=O)c1cc(Nc2ncc(Cl)c(NC3CC3)n2)ccc1OC [compound 1004] , thanks.
Response: 1.58*

Query: Need logP of CCCCCc1ccc(Nc2ncc(Cl)c(NC3CC3)n2)cc1 [compound 1048] , thanks.
Response: 3.55*

Query: Need logP of Clc1cnc(Nc2cccc(C3CCCC3)c2)nc1NC1CC1 [compound 1066] , thanks.
Response: 3.18*

Query: Need logP of CCSC(C)c1cccc(Nc2ncc(C(F)(F)F)c(NC3CC3)n2)c1 (centres unmarked) [compound 987] , thanks.
Response: 4.19*

* * *

# test protocol: logP determination via retention times, calibrated with unbranched alkan-2-ones
# Format: physicochemical
# measurement parameters: HPLC on reversed-phase C 18, method **: 43° C.; 0.1% aqueous phosphoric acid and acetonitrile; linear gradient 10% to 95% acetonitrile
Marks after values point to notes of the source that are not given here.
attribute measured: logP

[
  {
    "compound": "CSc1cccc(Nc2ncc(Cl)c(N(C)CC3CC3)n2)c1 [compound 968]",
    "result": "3.6**"
  }
]

Query: Need logP of COC(=O)Nc1ccc(Nc2ncc(Cl)c(N(C)CC3CC3)n2)cc1 [compound 970] , thanks.
Response: 1.99**

Query: Need logP of CN(CC1CC1)c1nc(Nc2ccccc2)ncc1Cl [compound 963] , thanks.
Response: 2.72**

Query: Need logP of CN(c1nc(Nc2ccccc2)ncc1Br)C1CC1 [compound 928] , thanks.
Response: 1.7**

Query: Need logP of CN(CC1CC1)c1nc(Nc2ccc(N3CCCC3=O)cc2)ncc1Cl [compound 966] , thanks.
Response: 2.09**

* * *

# test protocol: logP determination via retention times, calibrated with unbranched alkan-2-ones
# Format: physicochemical
# measurement parameters: HPLC on reversed-phase C18, method *: 40° C., 0.1% aqueous formic acid and acetonitrile, linear gradient 10% to 95% acetonitrile
Marks after values point to notes of the source that are not given here.
attribute measured: logP

Examples with their reported logP follow.
[
  {
    "compound": "CC(C)C(=O)Nc1ccc(Nc2ncc(C(F)(F)F)c(NC3CC3)n2)cc1",
    "result": "2.11*"
  },
  {
    "compound": "CC(C)Sc1ccccc1Nc1ncc(Cl)c(NC2CC2)n1",
    "result": "3.72*"
  },
  {
    "compound": "O=C(Nc1ccc(Nc2ncc(Cl)c(NCC3CC3)n2)cc1)C(F)(F)F",
    "result": "2.02*"
  },
  {
    "compound": "CCCc1ccccc1Nc1ncc(Cl)c(NC2CC2)n1",
    "result": "2.01*"
  },
  {
    "compound": "COc1cc(Nc2ncc(Br)c(NC3CC3)n2)cc(OC)c1OC",
    "result": "1.71*"
  },
  {
    "compound": "CCC(=O)Nc1ccc(Nc2ncc(C(F)(F)F)c(NC3CC3)n2)cc1",
    "result": "1.93*"
  },
  {
    "compound": "CC(C)(C)NC(=O)c1ccc(Nc2ncc(Cl)c(NCC3CC3)n2)cc1",
    "result": "2.21*"
  },
  {
    "compound": "CSc1ccc(Nc2ncc(Br)c(NC3CC3)n2)cc1Cl",
    "result": "3.03*"
  }
]

Alright, here's another compound for you.
Query: Need logP of OC(c1cccc(Nc2ncc(C(F)(F)F)c(NC3CC3)n2)c1)C(F)(F)F (stereo not drawn) , thanks.
Response: 2.69*

* * *

# test protocol: logP determination via retention times, calibrated with unbranched alkan-2-ones
# Format: physicochemical
# measurement parameters: method *: HPLC reversed-phase C18, 40° C., 0.1% aqueous formic acid and acetonitrile, linear gradient 10% to 95% acetonitrile
attribute measured: logP

[
  {
    "molecule": "O=C1Cc2cc(Nc3ncc(Cl)c(NC4CC4)n3)ccc2N1 [Example 56]",
    "logP": "1.05*"
  }
]

Query: Need logP of O=C1CCCN1c1ccc(Nc2ncc(Br)c(NCC3CC3)n2)cc1 [compound 457] , thanks.
Response: 1.66*;

Query: Need logP of CNC(=O)c1cccc(Nc2ncc(Br)c(NCC3CC3)n2)c1 [compound 427] , thanks.
Response: 1.53*

Query: Need logP of FC(F)(F)Oc1ccc(Nc2ncc(Cl)c(NC3CC3)n2)cc1 [compound 375] , thanks.
Response: 2.84*

Query: Need logP of CN(C)S(=O)(=O)c1ccc(Nc2ncc(Cl)c(NC3CC3)n2)cc1.Cl [Example 78] , thanks.
Response: 2.26*

Query: Need logP of CC(C)(C)C(=O)Nc1ccc(Nc2ncc(Br)c(NCC3CC3)n2)cc1 [compound 450] , thanks.
Response: 1.99*

Query: Need logP of CC(C)(C)C(=O)Cc1ccc(Nc2ncc(Br)c(NCC3CC3)n2)cc1 [compound 455] , thanks.
Response: 2.48*

Query: Need logP of CCCNS(=O)(=O)Cc1ccc(Nc2ncc(Cl)c(NC3CC3)n2)cc1 [compound 371] , thanks.
Response: 1.79*

Query: Need logP of CSc1ccc(Nc2ncc(Br)c(NCC3CC3)n2)cc1 [compound 453] , thanks.
Response: 2.29*

Query: Need logP of CC(=O)N(c1ccc(Nc2ncc(Cl)c(NC3CC3)n2)cc1)C1CC1 [Example 63] , thanks.
Response: 1.62*

Query: Need logP of Oc1ccc(Nc2ncc(Cl)c(NC3CC3)n2)cc1 [Example 75] , thanks.
Response: 1.12*

Query: Need logP of N#Cc1ccc(Nc2ncc(Cl)c(NC3CC3)n2)cc1 [compound 374] , thanks.
Response: 2.33*

Query: Need logP of CC(C)C(=O)Nc1cccc(Nc2ncc(Br)c(NCC3CC3)n2)c1 [compound 460] , thanks.
Response: 1.85*
